Hello, the source for this data is PubChem BioAssay AID1963424, in case you need it.

The following compounds are shown together with reported viability, T/C values.
System: 327498-153-R-J2-PDC complex spheroid growth, % test/control
Experiment: Anticancer human tumor 327498-153-R-J2-PDC patient-derived uterine carcinosarcoma cell line growth inhibition [Asc]
Conditions: second compound 0.316 µM; first compound 0.00316 µM; stronger effect = lower value
Just the number in %, nothing appended.

The examples below pair each entry with its known result.
| compound | readout.units | viability, T/C |
| --- | --- | --- |
| O=C(c1ccc(F)c(F)c1Nc1ccc(I)cc1F)N1CC(O)([C@@H]2CCCCN2)C1 + CNC(C)C(=O)NC1CN(S(=O)(=O)c2cccc(S(=O)(=O)N3CCC4CCC(C(=O)NC(c5ccccc5)c5ccccc5)N4C(=O)C(NC(=O)C(C)NC)C3)c2)CCC2CCC(C(=O)NC(c3ccccc3)c3ccccc3)N2C1=O | % | 105 |
| COc1c(OCCCN2CCOCC2)ccc2c3n(c(=NC(=O)c4cnc(N)nc4)nc12)CCN3 + Cc1c(S(C)(=O)=O)c(-c2cc(F)cc(N3CCN(c4ccc(NS(=O)(=O)c5ccc(NC(CCN6CCC(C(=O)OCCCP(=O)(O)O)CC6)CSc6ccccc6)c(S(=O)(=O)C(F)(F)F)c5)cc4)CC3)c2)c(-c2ccc(Cl)cc2)n1C(C)C | % | 91.3 |
| Cn1ncnc1[C@H]1c2n[nH]c(=O)c3cc(F)cc(c23)N[C@@H]1c1ccc(F)cc1 + CNC(C)C(=O)NC1CN(S(=O)(=O)c2cccc(S(=O)(=O)N3CCC4CCC(C(=O)NC(c5ccccc5)c5ccccc5)N4C(=O)C(NC(=O)C(C)NC)C3)c2)CCC2CCC(C(=O)NC(c3ccccc3)c3ccccc3)N2C1=O | % | 111 |

Task item: # lookup: viability, T/C of NC1CCC(NC2CC2c2ccccc2)CC1 (centres undefined) + CNC(C)C(=O)NC1CN(S(=O)(=O)c2cccc(S(=O)(=O)N3CCC4CCC(C(=O)NC(c5ccccc5)c5ccccc5)N4C(=O)C(NC(=O)C(C)NC)C3)c2)CCC2CCC(C(=O)NC(c3ccccc3)c3ccccc3)N2C1=O
Reply: 106

---

System: 327498-153-R-J2-PDC complex spheroid growth, % test/control
Test: Anticancer human tumor 327498-153-R-J2-PDC cell line growth inhibition [Asc];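 note: spheroids exposed to compound for 7 days after 3 days of growth; 100% = DMSO vehicle control wells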
Conditions: second compound 1 µM; first compound 1 µM; stronger effect = lower value
This section presents compounds with their documented viability, T/C values.
Report only the number, with the unit % understood.

As a guide, the following entries are already answered.
| compound | readout.units | viability, T/C |
| --- | --- | --- |
| C=CC(=O)N1CCN(c2nc(=O)n(-c3c(C)ccnc3C(C)C)c3nc(-c4c(O)cccc4F)c(F)cc23)C(C)C1 (stereo not drawn) + CNC(C)C(=O)NC1CN(S(=O)(=O)c2cccc(S(=O)(=O)N3CCC4CCC(C(=O)NC(c5ccccc5)c5ccccc5)N4C(=O)C(NC(=O)C(C)NC)C3)c2)CCC2CCC(C(=O)NC(c3ccccc3)c3ccccc3)N2C1=O | % | 77 |
| C=C(F)C(=O)N1CCN(c2nc(OCC3CCCN3C)nc3c2CCN(c2cccc4cccc(Cl)c24)C3)CC1CC#N (stereo not drawn) + CNC(C)C(=O)NC1CN(S(=O)(=O)c2cccc(S(=O)(=O)N3CCC4CCC(C(=O)NC(c5ccccc5)c5ccccc5)N4C(=O)C(NC(=O)C(C)NC)C3)c2)CCC2CCC(C(=O)NC(c3ccccc3)c3ccccc3)N2C1=O | % | 55.5 |

Task item: Lookup: viability, T/C / 327498-153-R-J2-PDC complex spheroid growth, % test/control / C=C(F)C(=O)N1CCN(c2nc(OCC3CCCN3C)nc3c2CCN(c2cccc4cccc(Cl)c24)C3)CC1CC#N (stereo not drawn) + Cc1c(S(C)(=O)=O)c(-c2cc(F)cc(N3CCN(c4ccc(NS(=O)(=O)c5ccc(NC(CCN6CCC(C(=O)OCCCP(=O)(O)O)CC6)CSc6ccccc6)c(S(=O)(=O)C(F)(F)F)c5)cc4)CC3)c2)c(-c2ccc(Cl)cc2)n1C(C)C
Reply: 40.8

---

System: 327498-153-R-J2-PDC complex spheroid growth, % test/control
Experiment: Anticancer human tumor 327498-153-R-J2-PDC cell line growth inhibition [Asc];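 note: spheroids exposed to compound for 7 days after 3 days of growth; 100% = DMSO vehicle control wells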
Details: second compound 1 µM; first compound 0.00316 µM; stronger effect = lower value
# key: entry, value: viability, T/C
Just the number in %, nothing appended.

Some entries whose results are on file:
| molecule | readout.units | viability, T/C |
| --- | --- | --- |
| Cn1ncnc1[C@H]1c2n[nH]c(=O)c3cc(F)cc(c23)N[C@@H]1c1ccc(F)cc1 + Cc1c(S(C)(=O)=O)c(-c2cc(F)cc(N3CCN(c4ccc(NS(=O)(=O)c5ccc(NC(CCN6CCC(C(=O)OCCCP(=O)(O)O)CC6)CSc6ccccc6)c(S(=O)(=O)C(F)(F)F)c5)cc4)CC3)c2)c(-c2ccc(Cl)cc2)n1C(C)C | % | 81.7 |
| COc1c(OCCCN2CCOCC2)ccc2c3n(c(=NC(=O)c4cnc(N)nc4)nc12)CCN3 + Cc1c(S(C)(=O)=O)c(-c2cc(F)cc(N3CCN(c4ccc(NS(=O)(=O)c5ccc(NC(CCN6CCC(C(=O)OCCCP(=O)(O)O)CC6)CSc6ccccc6)c(S(=O)(=O)C(F)(F)F)c5)cc4)CC3)c2)c(-c2ccc(Cl)cc2)n1C(C)C | % | 91.1 |

Now look at this one.
Task item: # query: viability, T/C of entry CNC(C)C(=O)NC1CN(S(=O)(=O)c2cccc(S(=O)(=O)N3CCC4CCC(C(=O)NC(c5ccccc5)c5ccccc5)N4C(=O)C(NC(=O)C(C)NC)C3)c2)CCC2CCC(C(=O)NC(c3ccccc3)c3ccccc3)N2C1=O (stereo not drawn) + Cc1c(S(C)(=O)=O)c(-c2cc(F)cc(N3CCN(c4ccc(NS(=O)(=O)c5ccc(NC(CCN6CCC(C(=O)OCCCP(=O)(O)O)CC6)CSc6ccccc6)c(S(=O)(=O)C(F)(F)F)c5)cc4)CC3)c2)c(-c2ccc(Cl)cc2)n1C(C)C
Reply: 100

---

Tested on: 327498-153-R-J2-PDC complex spheroid growth, % test/control
Assay: Anticancer human tumor 327498-153-R-J2-PDC cell line growth inhibition [Asc];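 note: spheroids exposed to compound for 7 days after 3 days of growth; 100% = DMSO vehicle control wells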
Details: second compound 0.316 µM; first compound 0.316 µM; stronger effect = lower value
readout.type: viability, T/C (%)
Field format: number, assumed %, no unit text.

Consider the following illustrative entries.
| compound | tested.on | viability, T/C [%] |
| --- | --- | --- |
| CNC(C)C(=O)NC1CN(S(=O)(=O)c2cccc(S(=O)(=O)N3CCC4CCC(C(=O)NC(c5ccccc5)c5ccccc5)N4C(=O)C(NC(=O)C(C)NC)C3)c2)CCC2CCC(C(=O)NC(c3ccccc3)c3ccccc3)N2C1=O (centres undefined) + Cc1c(S(C)(=O)=O)c(-c2cc(F)cc(N3CCN(c4ccc(NS(=O)(=O)c5ccc(NC(CCN6CCC(C(=O)OCCCP(=O)(O)O)CC6)CSc6ccccc6)c(S(=O)(=O)C(F)(F)F)c5)cc4)CC3)c2)c(-c2ccc(Cl)cc2)n1C(C)C | 327498-153-R-J2-PDC complex spheroid growth, % test/control | 87.7 |
| C#Cc1c(F)ccc2cc(O)cc(-c3ncc4c(N5CC6CCC(C5)N6)nc(OCC56CCCN5CC(F)C6)nc4c3F)c12 (centres undefined) + CNC(C)C(=O)NC1CN(S(=O)(=O)c2cccc(S(=O)(=O)N3CCC4CCC(C(=O)NC(c5ccccc5)c5ccccc5)N4C(=O)C(NC(=O)C(C)NC)C3)c2)CCC2CCC(C(=O)NC(c3ccccc3)c3ccccc3)N2C1=O | 327498-153-R-J2-PDC complex spheroid growth, % test/control | 92.4 |
| C=C(F)C(=O)N1CCN(c2nc(OCC3CCCN3C)nc3c2CCN(c2cccc4cccc(Cl)c24)C3)CC1CC#N (centres undefined) + CNC(C)C(=O)NC1CN(S(=O)(=O)c2cccc(S(=O)(=O)N3CCC4CCC(C(=O)NC(c5ccccc5)c5ccccc5)N4C(=O)C(NC(=O)C(C)NC)C3)c2)CCC2CCC(C(=O)NC(c3ccccc3)c3ccccc3)N2C1=O | 327498-153-R-J2-PDC complex spheroid growth, % test/control | 66 |
| O=C(c1cc(Cc2n[nH]c(=O)c3ccccc23)ccc1F)N1CCN(C(=O)C2CC2)CC1 + Cc1c(S(C)(=O)=O)c(-c2cc(F)cc(N3CCN(c4ccc(NS(=O)(=O)c5ccc(NC(CCN6CCC(C(=O)OCCCP(=O)(O)O)CC6)CSc6ccccc6)c(S(=O)(=O)C(F)(F)F)c5)cc4)CC3)c2)c(-c2ccc(Cl)cc2)n1C(C)C | 327498-153-R-J2-PDC complex spheroid growth, % test/control | 86.4 |
| O=C(c1ccc(F)c(F)c1Nc1ccc(I)cc1F)N1CC(O)([C@@H]2CCCCN2)C1 + CNC(C)C(=O)NC1CN(S(=O)(=O)c2cccc(S(=O)(=O)N3CCC4CCC(C(=O)NC(c5ccccc5)c5ccccc5)N4C(=O)C(NC(=O)C(C)NC)C3)c2)CCC2CCC(C(=O)NC(c3ccccc3)c3ccccc3)N2C1=O | 327498-153-R-J2-PDC complex spheroid growth, % test/control | 48.2 |
| C#Cc1c(F)ccc2cc(O)cc(-c3ncc4c(N5CC6CCC(C5)N6)nc(OCC56CCCN5CC(F)C6)nc4c3F)c12 (centres undefined) + Cc1c(S(C)(=O)=O)c(-c2cc(F)cc(N3CCN(c4ccc(NS(=O)(=O)c5ccc(NC(CCN6CCC(C(=O)OCCCP(=O)(O)O)CC6)CSc6ccccc6)c(S(=O)(=O)C(F)(F)F)c5)cc4)CC3)c2)c(-c2ccc(Cl)cc2)n1C(C)C | 327498-153-R-J2-PDC complex spheroid growth, % test/control | 88.3 |

Task item: What does the record list as viability, T/C for O=C(c1ccc(F)c(F)c1Nc1ccc(I)cc1F)N1CC(O)([C@@H]2CCCCN2)C1 + Cc1c(S(C)(=O)=O)c(-c2cc(F)cc(N3CCN(c4ccc(NS(=O)(=O)c5ccc(NC(CCN6CCC(C(=O)OCCCP(=O)(O)O)CC6)CSc6ccccc6)c(S(=O)(=O)C(F)(F)F)c5)cc4)CC3)c2)c(-c2ccc(Cl)cc2)n1C(C)C ?
Reply: 44.1

Task item: viability, T/C lookup needed for COc1c(OCCCN2CCOCC2)ccc2c3n(c(=NC(=O)c4cnc(N)nc4)nc12)CCN3 + CNC(C)C(=O)NC1CN(S(=O)(=O)c2cccc(S(=O)(=O)N3CCC4CCC(C(=O)NC(c5ccccc5)c5ccccc5)N4C(=O)C(NC(=O)C(C)NC)C3)c2)CCC2CCC(C(=O)NC(c3ccccc3)c3ccccc3)N2C1=O , thanks.
Reply: 26.9

Task item: // lookup viability, T/C for C=C(F)C(=O)N1CCN(c2nc(OCC3CCCN3C)nc3c2CCN(c2cccc4cccc(Cl)c24)C3)CC1CC#N (centres undefined) + Cc1c(S(C)(=O)=O)c(-c2cc(F)cc(N3CCN(c4ccc(NS(=O)(=O)c5ccc(NC(CCN6CCC(C(=O)OCCCP(=O)(O)O)CC6)CSc6ccccc6)c(S(=O)(=O)C(F)(F)F)c5)cc4)CC3)c2)c(-c2ccc(Cl)cc2)n1C(C)C
Reply: 56
